# System: Staphylococcus aureus (MSSA)
# Stated Conditions: 24 h
Starred links: 1 amine or outer side, 2 acyl side, 3 side chain; linkers in the order of their positions; H or OH if unused. Positions of bridges follow the written chain, without caps; N, C: chain ends. Non-standard residues stand in square brackets, D forms with d. Residues, ends and D or L forms follow the SMILES beside them. ξ: configuration not given here. *: point of attachment. X14 = CC(NC(=O)[C@@H](N)CNC(=O)CCN)C(N[*:1])C(=O)[*:2]; ξAbu(βξ-NH2) = CC(N[*:3])C(N[*:1])C(=O)[*:2]; Pentadecanoyl = CCCCCCCCCCCCCCC(=O)*; ξAsp(βξ-Me) = CC(C(=O)O)C(N)C(=O)O; ξD = NC(CC(=O)O)C(=O)O; ξPip = O=C(O)C1CCCCN1; ξV = CC(C)C(N)C(=O)O; ξP = O=C(O)C1CCCN1
Measurement Name: MIC (µg/mL)

INSERT INTO assay_data (molecule, units, endpoint_result) VALUES
  ('CCCCCCCCCCCCCCC(=O)NC(CC(=O)O)C(=O)NC1C(=O)N2CCCCC2C(=O)NC(C(C)C(=O)O)C(=O)NC(CC(=O)O)C(=O)NCC(=O)NC(CC(=O)O)C(=O)NCC(=O)NC(C(C)NC(=O)[C@@H](N)CNC(=O)CCN)C(=O)NC(C(C)C)C(=O)N2CCCC2C(=O)NC1C (stereo partly drawn) [Compound 200, C15-Amphomycin-9-Dap-(β-N-(β-Ala))] (Pentadecanoyl-[ξD][ξAbu(βξ-NH2)][ξPip][ξAsp(βξ-Me)][ξD]G[ξD]G[X14][ξV][ξP]; lactam 2-C)', 'µg/mL', 1),
  ('CCCCCCCCCCCCCCC(=O)NC(CC(=O)O)C(=O)NC1C(=O)N2CCCCC2C(=O)NC(C(C)C(=O)O)C(=O)NC(CC(=O)O)C(=O)NCC(=O)NC(CC(=O)O)C(=O)NCC(=O)NC(C(C)NC(=O)[C@H](CCCCN)NC(=O)[C@H](CCCCN)NC(=O)[C@@H](N)CCCCN)C(=O)NC(C(C)C)C(=O)N2CCCC2C(=O)NC1C (stereo partly drawn)', 'µg/mL', 4);

====

# Test system: Staphylococcus aureus
# Type: cell-based
# Stated Conditions: exposure one hour at 0.5 × MIC, S. aureus log phase
Measurement Name: Post Antibiotic Effect (hours) 0.5 × MIC (h)

INSERT INTO assay_data (compound, target_or_system, endpoint_result) VALUES
  ('CCCCCCCCCCCC(=O)Nc1ccc(C(=O)NC(CC(=O)O)C(=O)NC2C(=O)N3CCCCC3C(=O)NC(C(C)C(=O)O)C(=O)NC(CC(=O)O)C(=O)NCC(=O)NC(CC(=O)O)C(=O)NCC(=O)NC(C(C)NC(=O)CCN)C(=O)NC(C(C)C)C(=O)N3CCCC3C(=O)NC2C)cc1 (stereo not shown)', 'Staphylococcus aureus', 2.5),
  ('CCCCCCCCCCCCCCC(=O)NC(CC(=O)O)C(=O)NC1C(=O)N2CCCCC2C(=O)NC(C(C)C(=O)O)C(=O)NC(CC(=O)O)C(=O)NCC(=O)NC(CC(=O)O)C(=O)NCC(=O)NC(C(C)NC(=O)CNC(=O)[C@@H](N)CCCCN)C(=O)NC(C(C)C)C(=O)N2CCCC2C(=O)NC1C (stereo partly shown)', 'Staphylococcus aureus', 0.6),
  ('CCCCCCCCCCCCCCNC(=O)NC(CC(=O)O)C(=O)NC1C(=O)N2CCCCC2C(=O)NC(C(C)C(=O)O)C(=O)NC(CC(=O)O)C(=O)NCC(=O)NC(CC(=O)O)C(=O)NCC(=O)NC(C(C)NC(=O)CCN)C(=O)NC(C(C)C)C(=O)N2CCCC2C(=O)NC1C (stereo not shown)', 'Staphylococcus aureus', 1.5),
  ('CCCCCCCCCCCCCCC(=O)NC(CC(=O)O)C(=O)NC1C(=O)N2CCCCC2C(=O)NC(C(C)C(=O)O)C(=O)NC(CC(=O)O)C(=O)NCC(=O)NC(CC(=O)O)C(=O)NCC(=O)NC(C(C)NC(=O)CCN)C(=O)NC(C(C)C)C(=O)N2CCCC2C(=O)NC1C (stereo not shown)', 'Staphylococcus aureus', 1.6);

====

# Test system: Staphylococcus aureus (MSSA)
# Stated Conditions: 24 h
# Protocol: (“Approved Standard M7-A3”). The antimicrobial lipopeptide derivatives described herein were tested for antimicrobial activity against Gram-positive bacteria as follows. The minimum inhibitory concentrations (MIC) of the antimicrobial lipopeptide derivatives of the invention were determined using NCCLS guidelines M7-A6 (2003) with a slight modification in that doubling serial dilutions were used to dilute the test compounds. The broth phase microdilution method was used. […]
Starred links: 1 amine or outer side, 2 acyl side, 3 side chain; linkers in the order of their positions; H or OH if unused. Positions of bridges follow the written chain, without caps; N, C: chain ends. Non-standard residues stand in square brackets, D forms with d. Residues, ends and D or L forms follow the SMILES beside them. ξ: configuration not given here. *: point of attachment. X22 = CC(NC(=O)[C@H](N)CO)C(N[*:1])C(=O)[*:2]; ξAbu(βξ-NH2) = CC(N[*:3])C(N[*:1])C(=O)[*:2]; X4 = CNCC(=O)NC(C)C(N[*:1])C(=O)[*:2]; Pentadecanoyl = CCCCCCCCCCCCCCC(=O)*; ξAsp(βξ-Me) = CC(C(=O)O)C(N)C(=O)O; Palmitoyl = CCCCCCCCCCCCCCCC(=O)*; Tridecanoyl = CCCCCCCCCCCCC(=O)*; X1 = O=C(Cc1ccc(N[*:1])cc1)[*:2]; ξAbu(3ξ-NH2) = CC(N)C(N)C(=O)O; Pip = O=C(O)[CH]1CCCCN1; Hexanoyl = CCCCCC(=O)*; ξD = NC(CC(=O)O)C(=O)O; ξPip = O=C(O)C1CCCCN1; ξV = CC(C)C(N)C(=O)O; ξP = O=C(O)C1CCCN1; OtBu = CC(C)(C)O*
Measurement Name: MIC

INSERT INTO results (molecule, measurement_name, endpoint_result) VALUES
  ('CCCCCCCCCCCCCCC(=O)NC(CC(=O)O)C(=O)NC1C(=O)N2CCCCC2C(=O)NC(C(C)C(=O)O)C(=O)NC(CC(=O)O)C(=O)NCC(=O)NC(CC(=O)O)C(=O)NCC(=O)NC(C(C)NC(=O)[C@@H](N)CCCCN)C(=O)NC(C(C)C)C(=O)N2CCCC2C(=O)NC1C (single isomer, unassigned) [Compound 129, C15-Amphomycin-9-Lys]', 'MIC', '1 µg/mL'),
  ('CCCCCCCCCCCCCCCC(=O)Nc1ccc(CC(=O)NC(CC(=O)O)C(=O)NC2C(=O)N3CCCCC3C(=O)NC(C(C)C(=O)O)C(=O)NC(CC(=O)O)C(=O)NCC(=O)NC(CC(=O)O)C(=O)NCC(=O)NC(C(C)N)C(=O)NC(C(C)C)C(=O)N3CCCC3C(=O)NC2C)cc1 (stereo not drawn) [Compound 281, C16-(p-Apa)-Amphomycin] (Palmitoyl-[X1]D[ξAbu(βξ-NH2)][Pip][ξAsp(βξ-Me)]DGDG[ξAbu(3ξ-NH2)]VP; lactam 3-C; configuration not given here)', 'MIC', '2 µg/mL'),
  ('CCCCCCCCCCCCCCC(=O)NC(CC(=O)O)C(=O)NC1C(=O)N2CCCCC2C(=O)NC(C(C)C(=O)O)C(=O)NC(CC(=O)O)C(=O)NCC(=O)NC(CC(=O)O)C(=O)NCC(=O)NC(C(C)NC(=O)CN(C)C(=O)[C@@H](N)CN)C(=O)NC(C(C)C)C(=O)N2CCCC2C(=O)NC1C (some centres unmarked)', 'MIC', '2 µg/mL'),
  ('CCCCCCCCCCCCCCC(=O)NC(CC(=O)O)C(=O)NC1C(=O)N2CCCCC2C(=O)NC(C(C)C(=O)O)C(=O)NC(CC(=O)O)C(=O)NCC(=O)NC(CC(=O)O)C(=O)NCC(=O)NC(C(C)NC(=O)[C@H](CCCCN)NC(=O)CN)C(=O)NC(C(C)C)C(=O)N2CCCC2C(=O)NC1C (some centres unmarked)', 'MIC', '4 to 8 µg/mL'),
  ('CCCCCCCCCCCCC(=O)N[C@@H](CC(=O)OC(C)(C)C)C(=O)NC(CC(=O)O)C(=O)NC1C(=O)N2CCCCC2C(=O)NC(C(C)C(=O)O)C(=O)NC(CC(=O)O)C(=O)NCC(=O)NC(CC(=O)O)C(=O)NCC(=O)NC(C(C)N)C(=O)NC(C(C)C)C(=O)N2CCCC2C(=O)NC1C (stereo partly drawn) [Compound 315, C13-(Asp-(OtBu))-Amphomycin] (Tridecanoyl-D(OtBu)[ξD][ξAbu(βξ-NH2)][ξPip][ξAsp(βξ-Me)][ξD]G[ξD]G[ξAbu(3ξ-NH2)][ξV][ξP]; lactam 3-C)', 'MIC', '1 µg/mL'),
  ('CCCCCCCCCCCCCCC(=O)NC(CC(=O)O)C(=O)NC1C(=O)N2CCCCC2C(=O)NC(C(C)C(=O)O)C(=O)NC(CC(=O)O)C(=O)NCC(=O)NC(CC(=O)O)C(=O)NCC(=O)NC(C(C)NC(=O)CNC(=O)[C@@H](C)N)C(=O)NC(C(C)C)C(=O)N2CCCC2C(=O)NC1C (some centres unmarked)', 'MIC', '1 µg/mL'),
  ('CCCCCCCCCCCCCCC(=O)N[C@H](C(=O)NC(CC(=O)O)C(=O)NC1C(=O)N2CCCCC2C(=O)NC(C(C)C(=O)O)C(=O)NC(CC(=O)O)C(=O)NCC(=O)NC(CC(=O)O)C(=O)NCC(=O)NC(C(C)N)C(=O)NC(C(C)C)C(=O)N2CCCC2C(=O)NC1C)c1ccccc1 (some centres unmarked)', 'MIC', '2 µg/mL'),
  ('CNCC(=O)NC(C)C1NC(=O)CNC(=O)C(CC(=O)O)NC(=O)CNC(=O)C(CC(=O)O)NC(=O)C(C(C)C(=O)O)NC(=O)C2CCCCN2C(=O)C(NC(=O)C(N)CC(=O)O)C(C)NC(=O)C2CCCN2C(=O)C(C(C)C)NC1=O (stereo not drawn) [Compound 356, Amphomycin-9-Sar] (H-D[ξAbu(βξ-NH2)][Pip][ξAsp(βξ-Me)]DGDG[X4]VP; lactam 2-C; configuration not given here)', 'MIC', '>64 µg/mL'),
  ('CCCCCCCCCCCCOc1ccc(C(=O)NC(CC(=O)O)C(=O)NC2C(=O)N3CCCCC3C(=O)NC(C(C)C(=O)O)C(=O)NC(CC(=O)O)C(=O)NCC(=O)NC(CC(=O)O)C(=O)NCC(=O)NC(C(C)N)C(=O)NC(C(C)C)C(=O)N3CCCC3C(=O)NC2C)cc1 (centres unmarked)', 'MIC', '2 to 4 µg/mL'),
  ('CCCCCCCCCCCCCCC(=O)NC(CC(=O)O)C(=O)NC1C(=O)N2CCCCC2C(=O)NC(C(C)C(=O)O)C(=O)NC(CC(=O)O)C(=O)NCC(=O)NC(CC(=O)O)C(=O)NCC(=O)NC(C(C)NC(=O)[C@H](N)CO)C(=O)NC(C(C)C)C(=O)N2CCCC2C(=O)NC1C (stereo partly drawn) [Compound 262, C15-Amphomycin-(D-Ser)] (Pentadecanoyl-[ξD][ξAbu(βξ-NH2)][ξPip][ξAsp(βξ-Me)][ξD]G[ξD]G[X22][ξV][ξP]; lactam 2-C)', 'MIC', '4 µg/mL'),
  ('CCCCCC(=O)NCC(=O)NC(CC(=O)O)C(=O)NC1C(=O)N2CCCCC2C(=O)NC(C(C)C(=O)O)C(=O)NC(CC(=O)O)C(=O)NCC(=O)NC(CC(=O)O)C(=O)NCC(=O)NC(C(C)N)C(=O)NC(C(C)C)C(=O)N2CCCC2C(=O)NC1C (stereo not drawn) [Compound 358, C6-Gly-Amphomycin] (Hexanoyl-GD[ξAbu(βξ-NH2)][Pip][ξAsp(βξ-Me)]DGDG[ξAbu(3ξ-NH2)]VP; lactam 3-C; configuration not given here)', 'MIC', '>64 µg/mL');

Where do the numbers come from? From patent US7868135B2.
